Source: patent US20180222961A1

targetOrTestSystem: T1, HLA-B*07:02 (human)
T1 construct: also called peptide-receptive MHC molecules
assayDetails: UV-exchange b2m ELISA; exchange-yield grade
readoutType: peptide exchange yield

binder=APVIFSHSA readouttype="peptide exchange yield" result="20 to 50%"
binder=SPFSAEEANSL readouttype="peptide exchange yield" result="50 to 75%"
binder=LPLGTSMTF readouttype="peptide exchange yield" result="50 to 75%"
